test system: Nanoluciferase (engineered Oplophorus gracilirostris luciferase); assay: Primary Nanoluciferase (NLuc) qHTS assay for identification of artifact compounds. (AID 1845222); conditions: NLuc-conditioned medium, Nano-Glo luminescence, 5 min; series mostly up to 54.1 µM;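 note: NLuc secreted into diluted conditioned medium of S16 cells; 0% = DMSO and -100% = no enzyme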
Activity calls are given as the source filed them. Calls come from the whole dose curve; as a rule, active = well fitted inhibition curve with a large enough effect; inconclusive = small, poorly fitted or top-dose-only effect; inactive = flat fitted curve, though single readings scatter.
Parameter: activity, negative = inhibition

{"Compound": "C=CC1(C)CC(OC(=O)C(=C)C(O)COC(C)=O)C(C(=C)C(=O)OC)C(O)C1C(=C)CO (stereo unspecified)", "activity, negative = inhibition": "inactive"}
{"Compound": "CC(=O)[C@@H]1CC[C@]2(C(=O)O)CC[C@]3(C)C(CCC4[C@@]5(C)CC[C@H](O)C(C)(C)C5CC[C@]43C)C12 (stereo partly specified)", "activity, negative = inhibition": "inactive"}
{"Compound": "C=C1C[C@]23C[C@H]1CC[C@H]2[C@]1(C)CCC[C@@]2(CO)C(=O)O[C@H]([C@H]21)[C@@H]3O", "activity, negative = inhibition": "inactive"}
{"Compound": "CO/N=C(/C(=O)N[C@@H]1C(=O)N2C(C(=O)O)=C(CSC(=O)c3ccco3)CS[C@H]12)c1csc(N)n1", "activity, negative = inhibition": "inactive"}
{"Compound": "CC1(C)CC[C@]2(C(=O)O)CC[C@]3(C)C(=CCC4[C@@]5(C)C[C@@H](O)[C@H](O)C(C)(C)C5CC[C@]43C)[C@@H]2[C@@H]1O (stereo partly specified)", "activity, negative = inhibition": "inactive"}

Now for a further compound.
Prompt line: Give a short answer stating reported activity, negative = inhibition for C[C@@H]1O[C@@H](O[C@@H]2[C@@H](O)[C@@H](O)[C@H](O[C@@H]3[C@@H](O)[C@@H](O[C@]4(CO)O[C@H](CO)[C@@H](O)[C@@H]4OC(=O)/C=C/c4ccc(O)cc4)O[C@H](CO)[C@H]3OC(=O)/C=C/c3ccc(O)cc3)O[C@H]2C)[C@H](O)[C@H](O)[C@H]1O .
Response line: 1.58% [at 11.6 µM] (inactive)

###

tested on: HACAT; experiment: qHTS assay to identify novel small-molecules to repurpose for Merkel cell carcinoma treatment (AID 1296009); conditions: MCC and control cell lines, CellTiter-Glo viability, 72 h; at 44.8 µM (top of the series) unless noted; note: nearly all actives have a fitted effect of over 60% in size
Records with an inconclusive call do not appear. Activity calls are given as the source filed them. Calls come from the whole dose curve; as a rule, active = well fitted inhibition curve with a large enough effect; inconclusive = small, poorly fitted or top-dose-only effect; inactive = flat fitted curve, though single readings scatter.
Parameter: outcome

The following molecules have reported results that may help.
{"Molecule": "O=C(O)C[C@H]1CCC(=O)[C@@H]1C/C=C\\CCOC1OC(CO)C(O)C(O)C1O (some centres not stated)", "outcome": "inactive"}
{"Molecule": "COc1cc(C/C(=C/NC(C)=O)N(CC(=O)Cc2ccccc2)C(C)=O)cc2c1OCO2", "outcome": "inactive [at 17.4 µM]"}
{"Molecule": "O=C(O[C@H]1[C@@H]2C=CO[C@@H](O[C@@H]3O[C@H](CO)[C@@H](O)[C@H](O)[C@H]3O)[C@@H]2[C@@]2(CO)O[C@@H]12)c1ccc(O)c(O)c1", "outcome": "inactive [at 17.4 µM]"}
{"Molecule": "CCCCNC(=O)[C@@H]1Cc2ccccc2N1C(=O)[C@@H](N)CC", "outcome": "inactive"}
{"Molecule": "O=C(O)[C@H]1CCCC[C@H]1C(=O)N1CCc2ccccc2[C@H]1CN1C(=O)c2ccccc2C1=O", "outcome": "inactive"}

Prompt line: Give outcome for the following molecule: CCC(CC)n1ccc2c(C(=O)NCc3c(C)cc(C)[nH]c3=O)cc(C#N)cc21
Response line: inactive
